Target: Progesterone receptor (Homo sapiens)
Sequence (P06401 whole entry, canonical isoform): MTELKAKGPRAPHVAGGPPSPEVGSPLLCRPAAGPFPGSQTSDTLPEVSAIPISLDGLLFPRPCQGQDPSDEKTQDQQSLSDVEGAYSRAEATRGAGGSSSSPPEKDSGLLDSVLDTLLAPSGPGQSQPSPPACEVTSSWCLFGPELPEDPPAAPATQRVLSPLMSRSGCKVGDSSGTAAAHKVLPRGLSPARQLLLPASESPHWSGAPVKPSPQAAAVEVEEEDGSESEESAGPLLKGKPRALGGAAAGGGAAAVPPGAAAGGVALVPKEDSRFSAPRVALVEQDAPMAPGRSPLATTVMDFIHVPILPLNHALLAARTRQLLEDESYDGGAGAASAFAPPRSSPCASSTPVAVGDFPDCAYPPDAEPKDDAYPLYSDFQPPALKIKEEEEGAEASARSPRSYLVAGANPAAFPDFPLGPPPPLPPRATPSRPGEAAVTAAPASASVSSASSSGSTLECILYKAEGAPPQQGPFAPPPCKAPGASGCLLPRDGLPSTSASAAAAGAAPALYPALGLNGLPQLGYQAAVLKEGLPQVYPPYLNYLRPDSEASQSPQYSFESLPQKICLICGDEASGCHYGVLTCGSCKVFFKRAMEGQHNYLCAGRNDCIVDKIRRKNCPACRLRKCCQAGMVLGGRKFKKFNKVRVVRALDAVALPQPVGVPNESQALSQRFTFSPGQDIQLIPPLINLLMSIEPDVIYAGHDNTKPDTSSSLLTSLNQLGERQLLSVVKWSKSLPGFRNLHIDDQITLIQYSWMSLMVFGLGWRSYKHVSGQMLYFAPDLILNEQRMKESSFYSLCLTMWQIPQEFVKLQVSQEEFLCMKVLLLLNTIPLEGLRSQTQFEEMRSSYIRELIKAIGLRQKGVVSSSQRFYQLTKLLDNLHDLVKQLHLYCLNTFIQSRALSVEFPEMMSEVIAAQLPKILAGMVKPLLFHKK
Experiment: Effective concentration for half-maximal activation of human progesterone receptor expressed in CV-1 cells
Type: cell-based

{"columns": ["molecule", "EC50, nM"],
 "data": [
  ["CC1=CC(C)(C)Nc2ccc3c(c21)C(c1ccc(Cl)c(C)c1)Oc1ccc(F)cc1-3 (single isomer, unassigned; (-))", 2.4],
  ["CC1=CC(C)(C)Nc2ccc3c(c21)C(c1cccc(Cl)c1)Oc1ccc(F)cc1-3 (single isomer, unassigned; (+))", 135],
  ["CC1=CC(C)(C)Nc2ccc3c(c21)C(c1ccc(Cl)c(C)c1)Oc1ccc(F)cc1-3 (stereo in doubt)", 147],
  ["CC1=CC(C)(C)Nc2ccc3c(c21)C(c1cccc(Cl)c1)Oc1ccc(F)cc1-3 (single isomer, unassigned; (-))", 1.3]
]}

====

Recorded Ki, one value per entry.
Molecular target: Progesterone receptor (Homo sapiens)
Experiment: Binding affinity for baculovirus-expressed human progesterone receptor isoform A

{"columns": ["compound", "Ki [nM]"],
 "data": [
  ["CC1=CC(C)(C)Nc2ccc3c(c21)C(c1cccc(Cl)c1)Oc1ccc(F)cc1-3 (single isomer, unassigned; (-))", 0.1],
  ["CC1=CC(C)(C)Nc2ccc3c(c21)C(c1ccc(Cl)c(C)c1)Oc1ccc(F)cc1-3 (single isomer, unassigned; (-))", 0.4],
  ["CC1=CC(C)(C)Nc2ccc3c(c21)C(c1cccc(Cl)c1)Oc1ccc(F)cc1-3 (single isomer, unassigned; (+))", 30],
  ["CC1=CC(C)(C)Nc2ccc3c(c21)C(c1ccc(Cl)c(C)c1)Oc1ccc(F)cc1-3 (stereo in doubt)", 60]
]}

====

Molecular target: Glucocorticoid receptor (Homo sapiens, UniProt P04150)
Sequence (P04150 whole entry): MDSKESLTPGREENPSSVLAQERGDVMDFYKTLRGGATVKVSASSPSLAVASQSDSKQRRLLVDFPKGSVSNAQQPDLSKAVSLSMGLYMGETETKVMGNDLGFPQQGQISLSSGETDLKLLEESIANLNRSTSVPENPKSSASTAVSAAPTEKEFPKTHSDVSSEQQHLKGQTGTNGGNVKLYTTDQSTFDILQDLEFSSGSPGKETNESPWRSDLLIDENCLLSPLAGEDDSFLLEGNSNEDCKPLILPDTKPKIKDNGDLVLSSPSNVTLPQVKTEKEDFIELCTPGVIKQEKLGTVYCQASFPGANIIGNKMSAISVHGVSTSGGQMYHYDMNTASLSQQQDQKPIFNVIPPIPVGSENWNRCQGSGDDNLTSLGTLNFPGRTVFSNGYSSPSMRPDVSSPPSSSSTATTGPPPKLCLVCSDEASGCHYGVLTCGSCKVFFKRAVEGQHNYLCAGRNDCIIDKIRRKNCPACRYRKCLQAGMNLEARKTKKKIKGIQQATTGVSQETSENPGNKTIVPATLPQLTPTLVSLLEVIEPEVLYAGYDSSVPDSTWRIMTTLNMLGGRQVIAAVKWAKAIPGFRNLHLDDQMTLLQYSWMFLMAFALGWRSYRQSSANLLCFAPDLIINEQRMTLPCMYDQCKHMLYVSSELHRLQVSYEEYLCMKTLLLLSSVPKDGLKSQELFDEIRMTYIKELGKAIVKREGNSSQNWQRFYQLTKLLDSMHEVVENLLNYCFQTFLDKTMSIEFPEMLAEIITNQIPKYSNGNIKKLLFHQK

{"columns": ["molecule", "Ki (nM)"],
 "data": [
  ["CC1=CC(C)(C)Nc2ccc3c(c21)C(c1cccc(Cl)c1)Oc1ccc(Cl)cc1-3 (racemic)", 6.3],
  ["CC1=CC(C)(C)Nc2ccc3c(c21)C(c1cccc(Cl)c1)Oc1ccc(F)cc1-3 (racemic)", 133],
  ["CC1=CC(C)(C)Nc2ccc3c(c21)C(c1ccc(Cl)c(C)c1)Oc1ccc(Cl)cc1-3 (racemic)", 14],
  ["CC1=CC(C)(C)Nc2ccc3c(c21)C(c1ccc(Cl)c(C)c1)Oc1ccc(F)cc1-3 (racemic)", 210]
]}

====

Target: Progesterone receptor (Homo sapiens) (UniProt P06401)
Sequence (P06401 whole entry): as the sequence (P06401 whole entry, canonical isoform) above
Test: Efficacy for progesterone receptor relative to progesterone
Binary classification by Efficacy, with 100 as an inclusive lower bound for rule met; all other cases are rule not met.

{"columns": ["compound", "discreteLabel"],
 "data": [
  ["CC1=CC(C)(C)Nc2ccc3c(c21)C(c1cccc(Cl)c1)Oc1ccc(F)cc1-3 (single isomer, unassigned; (-))", "rule met"],
  ["CC1=CC(C)(C)Nc2ccc3c(c21)C(c1ccc(Cl)c(C)c1)Oc1ccc(F)cc1-3 (stereo in doubt)", "rule not met"],
  ["CC1=CC(C)(C)Nc2ccc3c(c21)C(c1cccc(Cl)c1)Oc1ccc(F)cc1-3 (racemic)", "rule met"],
  ["CC1=CC(C)(C)Nc2ccc3c(c21)C(c1cccc(Cl)c1)Oc1ccc(F)cc1-3 (single isomer, unassigned; (+))", "rule not met"],
  ["CC1=CC(C)(C)Nc2ccc3c(c21)C(c1cccc(Cl)c1)Oc1ccc(Cl)cc1-3 (racemic)", "rule not met"],
  ["CC1=CC(C)(C)Nc2ccc3c(c21)C(c1ccc(Cl)c(C)c1)Oc1ccc(Cl)cc1-3 (racemic)", "rule not met"]
]}
